- System: K. pneumoniae OXA-48
- RUN CONDITIONS: CSV; […] MH at pH 8.5
Where a SMILES comes first, the peptide text is derived from it. [ ]: non-standard residue; d: D form. Nleu = CC(C)CNCC(=O)O; Nlys = NCCCCNCC(=O)O
PARAMETER MEASURED: MIC K. pneumoniae OXA-48, […] MH at pH 8.5 (ug/mL)

{"MOLECULE": "CC(C)CN(CC(N)=O)C(=O)CN(CC(C)C)C(=O)CN(CC(C)C)C(=O)CN(CCCCN)C(=O)CN(CC(C)C)C(=O)CN(CC(C)C)C(=O)CN(CCCCN)C(=O)CN(CC(C)C)C(=O)CN(CC(C)C)C(=O)CN(CCCCN)C(=O)CNCCCCN [EB11, kkllkllklll] (H-[Nlys][Nlys][Nleu][Nleu][Nlys][Nleu][Nleu][Nlys][Nleu][Nleu][Nleu]-NH2)", "OBSERVED MEASUREMENT": 32}

* * *

- Test system: A. baumannii ATCC19606
- RUN CONDITIONS: Table S2; […] MH, pH 7.4
Where a SMILES comes first, the peptide text is derived from it. [ ]: non-standard residue; d: D form. Nleu = CC(C)CNCC(=O)O; Nlys = NCCCCNCC(=O)O
Catalogue of MIC A. baumannii ATCC19606 […] 7.4 readings, one per entry.

{"COMPOUND": "CC(C)C[C@H](NC(=O)[C@H](CC(C)C)NC(=O)[C@H](CC(C)C)NC(=O)[C@@H](CCCCN)NC(=O)[C@H](CC(C)C)NC(=O)[C@H](CC(C)C)NC(=O)[C@@H](CCCCN)NC(=O)[C@H](CC(C)C)NC(=O)[C@H](CC(C)C)NC(=O)[C@@H](CCCCN)NC(=O)[C@H](N)CCCCN)C(N)=O [ln69, kkLLkLLkLLL, reference compound] (H-[dK][dK]LL[dK]LL[dK]LLL-NH2)", "EXPERIMENTAL TARGET": "A. baumannii ATCC19606", "UNIT TAG": "µg/mL", "MIC A. baumannii ATCC19606 […] 7.4": 2}
{"COMPOUND": "CC(C)C[C@H](NC(=O)CN(CC(C)C)C(=O)[C@H](CC(C)C)NC(=O)CN(CCCCN)C(=O)[C@H](CC(C)C)NC(=O)CN(CC(C)C)C(=O)[C@H](CCCCN)NC(=O)CN(CC(C)C)C(=O)[C@H](CC(C)C)NC(=O)CN(CCCCN)C(=O)[C@@H](N)CCCCN)C(N)=O [EB9, KkLlKlLkLlL] (H-K[Nlys]L[Nleu]K[Nleu]L[Nlys]L[Nleu]L-NH2)", "EXPERIMENTAL TARGET": "A. baumannii ATCC19606", "UNIT TAG": "µg/mL", "MIC A. baumannii ATCC19606 […] 7.4": 16}

* * *

- EXPERIMENTAL DETAILS: Circular dichroism, α-helical content
- Type: physicochemical
- RUN CONDITIONS: 0.1 mg/mL, 10 mM phosphate buffer pH 7.4, 5 mM DPC; DichroWeb, Contin-LL
Where a SMILES comes first, the peptide text is derived from it. [ ]: non-standard residue; d: D form. Nleu = CC(C)CNCC(=O)O; Nlys = NCCCCNCC(=O)O
PARAMETER MEASURED: CD %α with 5 mM DPC

{"MOLECULE": "CC(C)C[C@H](NC(=O)[C@H](CC(C)C)NC(=O)[C@H](CC(C)C)NC(=O)[C@H](CCCCN)NC(=O)[C@H](CC(C)C)NC(=O)[C@H](CC(C)C)NC(=O)CN(CCCCN)C(=O)[C@H](CC(C)C)NC(=O)[C@H](CC(C)C)NC(=O)CN(CCCCN)C(=O)CNCCCCN)C(N)=O [EB6, kkLLkLLKLLL] (H-[Nlys][Nlys]LL[Nlys]LLKLLL-NH2)", "OBSERVED MEASUREMENT": "41%"}
{"MOLECULE": "CC(C)C[C@H](NC(=O)[C@H](CC(C)C)NC(=O)[C@H](CC(C)C)NC(=O)[C@@H](CCCCN)NC(=O)[C@H](CC(C)C)NC(=O)[C@H](CC(C)C)NC(=O)[C@@H](CCCCN)NC(=O)[C@H](CC(C)C)NC(=O)[C@H](CC(C)C)NC(=O)[C@@H](CCCCN)NC(=O)[C@H](N)CCCCN)C(N)=O [ln69, kkLLkLLkLLL, reference compound] (H-[dK][dK]LL[dK]LL[dK]LLL-NH2)", "OBSERVED MEASUREMENT": "61%"}
{"MOLECULE": "CC(C)C[C@H](NC(=O)CN(CCCCN)C(=O)[C@H](CC(C)C)NC(=O)[C@H](CC(C)C)NC(=O)[C@H](CCCCN)NC(=O)[C@H](CC(C)C)NC(=O)[C@H](CC(C)C)NC(=O)[C@H](CCCCN)NC(=O)CNCCCCN)C(=O)N[C@@H](CC(C)C)C(=O)N(CC(N)=O)CC(C)C [EB2, kKLLKLLkLLl] (H-[Nlys]KLLKLL[Nlys]LL[Nleu]-NH2)", "OBSERVED MEASUREMENT": "11%"}

* * *

- Test system: P. aeruginosa PAO1
- RUN CONDITIONS: Table S2; […] MH, pH 7.4
Where a SMILES comes first, the peptide text is derived from it. [ ]: non-standard residue; d: D form. Nleu = CC(C)CNCC(=O)O; Nlys = NCCCCNCC(=O)O

{"COMPOUND": "CC(C)C[C@H](NC(=O)[C@H](CCCCN)NC(=O)CNCCCCN)C(=O)N[C@@H](CC(C)C)C(=O)N[C@@H](CCCCN)C(=O)N[C@@H](CC(C)C)C(=O)N[C@@H](CC(C)C)C(=O)N[C@@H](CCCCN)C(=O)N[C@@H](CC(C)C)C(=O)N[C@@H](CC(C)C)C(=O)N(CC(N)=O)CC(C)C [EB1] (H-[Nlys]KLLKLLKLL[Nleu]-NH2; N-terminus assumed)", "MIC P. aeruginosa PAO1 […] 7.4 [µg/mL]": 2}
{"COMPOUND": "CC(C)C[C@H](NC(=O)CN(CC(C)C)C(=O)[C@H](CC(C)C)NC(=O)CN(CCCCN)C(=O)[C@H](CC(C)C)NC(=O)CN(CC(C)C)C(=O)[C@H](CCCCN)NC(=O)CN(CC(C)C)C(=O)[C@H](CC(C)C)NC(=O)CN(CCCCN)C(=O)[C@@H](N)CCCCN)C(N)=O [EB9, KkLlKlLkLlL] (H-K[Nlys]L[Nleu]K[Nleu]L[Nlys]L[Nleu]L-NH2)", "MIC P. aeruginosa PAO1 […] 7.4 [µg/mL]": 4}
{"COMPOUND": "CC(C)C[C@H](NC(=O)[C@H](CC(C)C)NC(=O)[C@H](CC(C)C)NC(=O)[C@@H](CCCCN)NC(=O)[C@H](CC(C)C)NC(=O)[C@H](CC(C)C)NC(=O)[C@@H](CCCCN)NC(=O)[C@H](CC(C)C)NC(=O)[C@H](CC(C)C)NC(=O)[C@@H](CCCCN)NC(=O)[C@H](N)CCCCN)C(N)=O [ln69, kkLLkLLkLLL, reference compound] (H-[dK][dK]LL[dK]LL[dK]LLL-NH2)", "MIC P. aeruginosa PAO1 […] 7.4 [µg/mL]": 4}

* * *

- EXPERIMENTAL DETAILS: Lipid vesicle leakage assay
- RUN CONDITIONS: egg yolk phosphatidyl choline vesicles, 10 mM TRIS, 107 mM NaCl, pH 7.4
Where a SMILES comes first, the peptide text is derived from it. [ ]: non-standard residue; d: D form. Nleu = CC(C)CNCC(=O)O; Nlys = NCCCCNCC(=O)O
PARAMETER MEASURED: Vesicle leakage activity on EYPC vesicles

{"MOLECULE": "CC(C)CN(CC(N)=O)C(=O)CN(CC(C)C)C(=O)CN(CC(C)C)C(=O)CN(CCCCN)C(=O)CN(CC(C)C)C(=O)CN(CC(C)C)C(=O)CN(CCCCN)C(=O)CN(CC(C)C)C(=O)CN(CC(C)C)C(=O)CN(CCCCN)C(=O)CNCCCCN [EB11, kkllkllklll] (H-[Nlys][Nlys][Nleu][Nleu][Nlys][Nleu][Nleu][Nlys][Nleu][Nleu][Nleu]-NH2)", "OBSERVED MEASUREMENT": "no activity"}
{"MOLECULE": "CC(C)C[C@H](NC(=O)CN(CC(C)C)C(=O)[C@H](CC(C)C)NC(=O)CN(CCCCN)C(=O)[C@H](CC(C)C)NC(=O)CN(CC(C)C)C(=O)[C@H](CCCCN)NC(=O)CN(CC(C)C)C(=O)[C@H](CC(C)C)NC(=O)CN(CCCCN)C(=O)[C@@H](N)CCCCN)C(N)=O [EB9, KkLlKlLkLlL] (H-K[Nlys]L[Nleu]K[Nleu]L[Nlys]L[Nleu]L-NH2)", "OBSERVED MEASUREMENT": "no activity"}

* * *

- Test system: S. aureus Newman
- RUN CONDITIONS: Table S3; […] MH at pH 8.5
Where a SMILES comes first, the peptide text is derived from it. [ ]: non-standard residue; d: D form. Nleu = CC(C)CNCC(=O)O; Nlys = NCCCCNCC(=O)O
Catalogue of MIC S. aureus Newman readings, one per entry.
PARAMETER MEASURED: MIC S. aureus Newman

{"COMPOUND": "CC(C)C[C@H](NC(=O)[C@H](CC(C)C)NC(=O)[C@H](CC(C)C)NC(=O)[C@@H](CCCCN)NC(=O)[C@H](CC(C)C)NC(=O)[C@H](CC(C)C)NC(=O)[C@@H](CCCCN)NC(=O)[C@H](CC(C)C)NC(=O)[C@H](CC(C)C)NC(=O)[C@@H](CCCCN)NC(=O)[C@H](N)CCCCN)C(N)=O [ln69, kkLLkLLkLLL, reference compound] (H-[dK][dK]LL[dK]LL[dK]LLL-NH2)", "PARAMETER MEASURED": "MIC S. aureus Newman", "OBSERVED MEASUREMENT": "2 to 4 µg/mL"}
{"COMPOUND": "CC(C)CN(CC(N)=O)C(=O)CN(CC(C)C)C(=O)CN(CC(C)C)C(=O)CN(CCCCN)C(=O)CN(CC(C)C)C(=O)CN(CC(C)C)C(=O)CN(CCCCN)C(=O)CN(CC(C)C)C(=O)CN(CC(C)C)C(=O)CN(CCCCN)C(=O)CNCCCCN [EB11, kkllkllklll] (H-[Nlys][Nlys][Nleu][Nleu][Nlys][Nleu][Nleu][Nlys][Nleu][Nleu][Nleu]-NH2)", "PARAMETER MEASURED": "MIC S. aureus Newman", "OBSERVED MEASUREMENT": "4 µg/mL"}
{"COMPOUND": "CC(C)C[C@H](NC(=O)CN(CC(C)C)C(=O)[C@H](CCCCN)NC(=O)CNCCCCN)C(=O)N(CCCCN)CC(=O)N[C@@H](CC(C)C)C(=O)N(CC(=O)N[C@@H](CCCCN)C(=O)N(CC(=O)N[C@@H](CC(C)C)C(=O)N(CC(N)=O)CC(C)C)CC(C)C)CC(C)C [EB10, kKlLkLlKlLl] (H-[Nlys]K[Nleu]L[Nlys]L[Nleu]K[Nleu]L[Nleu]-NH2)", "PARAMETER MEASURED": "MIC S. aureus Newman", "OBSERVED MEASUREMENT": "8 µg/mL"}

Hey, just so you know, these numbers are from paper PMC10714400.
